src = paper PMC12864922

# maps each entry to its binding signal
# Assay system: TDP-43 (Homo sapiens, UniProt Q13148 1-414)
# Sequence (Q13148 whole entry): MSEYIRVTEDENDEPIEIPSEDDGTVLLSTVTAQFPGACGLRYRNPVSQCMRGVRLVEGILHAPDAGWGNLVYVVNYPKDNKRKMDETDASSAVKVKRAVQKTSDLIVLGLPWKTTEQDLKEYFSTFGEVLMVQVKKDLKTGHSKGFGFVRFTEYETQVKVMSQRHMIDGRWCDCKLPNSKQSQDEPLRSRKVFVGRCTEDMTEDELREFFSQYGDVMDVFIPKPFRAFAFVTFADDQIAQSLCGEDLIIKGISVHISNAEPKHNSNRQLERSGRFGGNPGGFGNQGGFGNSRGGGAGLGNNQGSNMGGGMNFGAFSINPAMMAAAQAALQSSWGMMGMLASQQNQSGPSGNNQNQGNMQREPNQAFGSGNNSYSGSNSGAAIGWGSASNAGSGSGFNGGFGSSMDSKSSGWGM
# Test protocol: RNA Bind-n-Seq with designed 260-mer pool; 25 mM Tris-HCl, 150 mM KCl, 3 mM MgCl2, BSA (printed 500 mg/mL), 20 units/mL SUPERase IN; pH not stated; 500 nM RNA pool, 1 h, 4 C; TDP-43 5, 50, 500 nM; high values mean tight binding
# Run conditions: protein: recombinant; tags: SBP (GST cleaved off with PreScission; pGEX-GST-SBP)
The full ranking holds about 9,900 sequences; the median of “r (bound/input frequency ratio)” is about 0.7, and the highest 2% start at about 6.5. The sample holds the highest values, similar sequences and a random draw of the others, so the mix is not that of the screen.

[
  {
    "Binder": "ENSMUSG00000029028.38|Lrrc47 (ssRNA) RNA: GGGAGUUCUACAGUCCGACGAUCGCUUCGAUAUCCGCAUGCUAUGUGCUGUAGGUGUCUGUGUAGGUGUGGGUGUGCUGUAGGUGUCUGUGUGGGUGUGCUAGGUGUCUGUAUAGGUGUGGGUGUGCUGUAGAUGUCUGUGUAGGUAUGGGUGUGCUGUAGAUCUUUGUAGGUGUAGGUAUGCUGUAGGUAUCUGGGUGUGGGUAUGCUGUAGAUGUCUGUGUAGGUGUGGAUAUGCUGUAGGUAUCUGGGUGUGCUGUAGGUGUCUGUGUGGGUGUGGGUGUGCUGUGGGUGUCUGUGUGGGCUCUUGCGGUCGCACUAGUGUGGAAUUCUCGGGUGUCAAGG",
    "binding signal": "5.89 R (bound/input frequency ratio)"
  }
]

## Input Specify reported binding signal for the binder shown: ENSMUSG00000029028.44|Lrrc47 (ssRNA) RNA: GGGAGUUCUACAGUCCGACGAUCGCUUCGAUAUCCGCAUGCUAUAGGUGUCUGUGUGGGUGUGCUAGGUGUCUGUAUAGGUGUGGGUGUGCUGUAGAUGUCUGUGUAGGUAUGGGUGUGCUGUAGAUCUUUGUAGGUGUAGGUAUGCUGUAGGUAUCUGGGUGUGGGUAUGCUGUAGAUGUCUGUGUAGGUGUGGAUAUGCUGUAGGUAUCUGGGUGUGCUGUAGGUGUCUGUGUGGGUGUGGGUGUGCUGUGGGUGUCUGUGUGGGUGUGCUGUAGGUGUCUGUAGGUGUGGGUAUGCUGCACUCUUGCGGUCGCACUAGUGUGGAAUUCUCGGGUGUCAAGG
## Output 6.44 R (bound/input frequency ratio)
